molecular target: JAK3 (Homo sapiens); construct: made in house; host or cells: SF9 insect cells (baculovirus); assay: JAK3 inhibition (Table 4); assay type: biochemical; conditions: read-out: JAK3 Ki
Sequence (P52333 783-1124): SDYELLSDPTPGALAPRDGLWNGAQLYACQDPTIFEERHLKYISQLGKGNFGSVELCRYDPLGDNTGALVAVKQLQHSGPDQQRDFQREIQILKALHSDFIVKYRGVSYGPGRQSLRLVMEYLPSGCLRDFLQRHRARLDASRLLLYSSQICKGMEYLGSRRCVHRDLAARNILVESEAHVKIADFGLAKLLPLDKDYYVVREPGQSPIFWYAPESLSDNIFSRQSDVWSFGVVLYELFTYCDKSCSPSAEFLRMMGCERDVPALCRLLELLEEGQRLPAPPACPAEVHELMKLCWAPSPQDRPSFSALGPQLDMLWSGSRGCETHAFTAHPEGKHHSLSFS
pKi: −log10 of the molar value.
Observed Property: pKi

1) N#Cc1cccc(CN2CCC(n3c(CC(=O)N4CCC(F)(F)CC4)nc4cnc5[nH]ccc5c43)CC2)n1 : 7.03
2) CC(C)(C#N)C(=O)N1CCC[C@@H](n2cnc3cnc4[nH]ccc4c32)C1 : 7.68
3) OCc1nc2cnc3[nH]ccc3c2n1C1CC2CCC1O2 (single isomer, unassigned) [Example 852] : 6.93
4) c1cnn(Cc2nc3cnc4[nH]ccc4c3n2C2CCNCC2)c1 : 6.06

a: N#CCCN1CCC(n2c(C3CCC3)nc3cnc4[nH]ccc4c32)CC1
b: O=C(Cc1ccccc1)N1CCC[C@@H](n2cnc3cnc4[nH]ccc4c32)C1
Form field 'greater pKi' accepts a or b ; which applies? Bench note: the answer is the label of the chosen record.
a
